# Assay: Intrinsic clearance in rat liver microsomes in presence of NADPH regeneration system
# Assay Context: liver microsomes
Observable: CLint scaled (mL/min/kg)

O=C(c1ccc2c(c1)OCCO2)c1c[nH]c(-c2c[nH]c3ccccc23)n1    54.9
COc1cc(C(=O)c2c[nH]c(-c3c[nH]c4ccccc34)n2)cc2c1OC=CO2    13.1

(a) COc1cc(C(=O)c2c[nH]c(-c3c[nH]c4ccccc34)n2)cc2c1OCCO2
(b) O=C(c1ccc2c(c1)OCO2)c1c[nH]c(-c2c[nH]c3ccccc23)n1
Compare reported CLint scaled values for a and b . Which is lower? Indicate which entry you chose by stating its label.
b
